Provenance of the data: patent US20180186897A1

Catalogue of % parasite recognition values
# experimental system: erythrocytes infected with P. falciparum field isolate 11019
# assay method text: flow cytometry, staining of IEs
measurement kind: % parasite recognition (%)

MGC17 (antibody) VH: EVQLVESGGGLVQPGGSLKLSCVASGFNFRKSWMSWVRQAPGKGLEWVANIREDGSKAYYVDSVKGRFTVSRDNAKNSLYLQINSLRADDTAVYYCARDRFCSDDEDHSHGAEDLPRPSISAEEGTVIPLGSRLTFVCRGPVGVHTFRLERDRRSTYNDTEDVSHPSPSESEARFRIDSVSEGNAGLYRCVYYKSPEWSKQSDYLELLVKGQEVTWALFTSCGGDGEVPDYDMDVRGKGTTVTVSS VL: DIVMTQSPDSLAVSLGERATINCKSSQSVLYRSKNKKYLAWFQQRPGQPPKVLIYWTSTRASGVPDRFSGSGSGTDFTLTISSLQADDVAVYYCQQYFIFPYTFGQGTKLEIR | 7.1
MGD39 (antibody) VH: QVRLQESGPGLVKPSGTLSLTCTVSGGSISAYRWWSWVRQAPGKGLEWIGQVYNDGNTNYNPSLKGRVAMSVDKSKNRFSLRLASVTAADTAVYYCATISPLRPQSDTDDLPRPSISAEPGTVIPLGSHVTFVCRGPIGVQTFRLERERRSLYSDTEDVSQVSPFASEARFRIDSVSEGNAGPYRCIYYKDRKWSDQSDYLELLVKGEDVTWALPQSQLAPRACPQEELNISTDIFSMNVWGKGTTVTVSS VL: AIRMTQSPASLSASIGDRVTITCRTSHDVGNYLDWYQQKPGKAPKLLIHGASTLQTGVPSRFSGSGAGTDFTLNITCLQSGDFAMYYCQQYYSSPPGFGQGTRLEIK | 43
MGC26 (antibody) VH: EVQLVDSGGGLVQPGGSLRLSCAASGFTFSTYWMTWVRQTPGKGLEWVASIKQDGTERYYVDSVKGRFIISRDNAKNSLYLQMHSLRAEDTAVYYCVRDRFCRDHMHIEEDLPRPSISPEPATVIPLGSHVTIVCRGPVGVETFRLQKESRSLYNDTEDVSQPSPSESEARFRIDSVSEGHGGLYRCLYYKSSKWSEQSDYLEMLVKGEDVTWALFPYCGGDGEESDYYMDVWGKGTTVTVSS VL: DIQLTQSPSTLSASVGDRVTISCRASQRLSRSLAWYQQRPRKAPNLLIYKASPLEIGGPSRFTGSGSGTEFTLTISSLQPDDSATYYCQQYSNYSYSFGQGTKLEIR | 50.8
